details: in dimethyl carbonate, 298.15 K
attribute-measured: solubility (mole fraction)

If you can, please state the reported solubility (mole fraction) value of CCOc1ccc(OCC)cc1 .
0.0994

###

conditions: in ethyl lactate, 318.15 K
attribute-measured: solubility (mole fraction)
Numbers only.

Quick check: solubility (mole fraction) of CCOc1ccc(OCC)cc1 ?
0.213

###

details: in ethyl acetate, 303.15 K
attribute-measured: solubility (mole fraction)
One number for each entry.

I am curious: what solubility (mole fraction) value has been reported for CCOc1ccc(OCC)cc1 ?
0.218

###

conditions: in methanol, 313.15 K
attribute-measured: solubility (mole fraction)
Answers are plain numbers.

I have this compound here, CCOc1ccc(OCC)cc1 , and I need its recorded solubility (mole fraction).
0.0212

###

settings: in 2-butanone, 318.15 K
attribute-measured: solubility (mole fraction)
Numbers only.

solubility (mole fraction) lookup needed for CCOc1ccc(OCC)cc1 , thanks.
0.406

###

conditions: in n-propyl acetate, 318.15 K
attribute-measured: solubility (mole fraction)
Give bare numbers.

Form field: reported solubility (mole fraction) of CCOc1ccc(OCC)cc1
0.383

###

details: in acetonitrile, 308.15 K
attribute-measured: solubility (mole fraction)

State the recorded solubility (mole fraction) for this entry: CCOc1ccc(OCC)cc1
0.141

###

conditions: in ethanol, 298.15 K
attribute-measured: solubility (mole fraction)
Give bare numbers.

Entry CCOc1ccc(OCC)cc1 has what solubility (mole fraction)?
0.0155

###

conditions: in ethyl acetate, 318.15 K
attribute-measured: solubility (mole fraction)
Numbers only.

What solubility (mole fraction) value was documented for this molecule, CCOc1ccc(OCC)cc1 ?
0.372

###

details: in ethanol, 313.15 K
attribute-measured: solubility (mole fraction)
Give bare numbers.

I'd like to know its solubility (mole fraction). The compound in question is CCOc1ccc(OCC)cc1
0.031

###

conditions: in 2-butanone, 288.15 K
attribute-measured: solubility (mole fraction)
Give bare numbers.

solubility (mole fraction) lookup needed for CCOc1ccc(OCC)cc1 , thanks.
0.113

###

conditions: in ethanol, 303.15 K
attribute-measured: solubility (mole fraction)
Numbers only.

Entry under review: CCOc1ccc(OCC)cc1 . Reported solubility (mole fraction)?
0.0189

###

details: in isobutyl acetate, 298.15 K
attribute-measured: solubility (mole fraction)
Answers are plain numbers.

Find the recorded solubility (mole fraction) belonging to CCOc1ccc(OCC)cc1 and report it.
0.112

###

conditions: in n-butyl acetate, 313.15 K
attribute-measured: solubility (mole fraction)

Recorded solubility (mole fraction) for CCOc1ccc(OCC)cc1 , please?
0.347

###

conditions: in methyl acetate, 288.15 K
attribute-measured: solubility (mole fraction)
Answers are plain numbers.

Which solubility (mole fraction) value belongs to CCOc1ccc(OCC)cc1 ?
0.0905

###

details: in isobutyl acetate, 308.15 K
attribute-measured: solubility (mole fraction)

Looking for the measured solubility (mole fraction) of CCOc1ccc(OCC)cc1 , can you help?
0.181

###

conditions: in acetone, 308.15 K
attribute-measured: solubility (mole fraction)

What does the data say about its solubility (mole fraction)? Entry: CCOc1ccc(OCC)cc1
0.204

###

settings: in 2-butanone, 293.15 K
attribute-measured: solubility (mole fraction)
One number for each entry.

Reported solubility (mole fraction) for CCOc1ccc(OCC)cc1 : what is it?
0.136

###

details: in ethyl lactate, 308.15 K
attribute-measured: solubility (mole fraction)
Numbers only.

Value lookup for solubility (mole fraction); key = CCOc1ccc(OCC)cc1
0.109
